Where these numbers come from: patent US20250242064A1

For each record, write down the corresponding tissue uptake at 3 h.
EXPERIMENT: in vivo
Design: species or system mice
MEASUREMENT_CONDITIONS: male, NOD.Cg-Rag1tm1Mom Il2rgtm1Wjl/SzJ (NRG), mouse, iv, total radioactivity, Biodistribution: Z138 Tumor
Where a SMILES comes first, the peptide text is derived from it. Bridges are numbered along the chain shown (N, C = ends). [ ]: non-standard residue; d: D form. The star is where a group is joined. X4 = O=C(O)CN1CCN(CC(=O)O)CCN(CC(=O)N[C@@H](CS(=O)(=O)O)C(=O)NCCCC[C@H](NC(=O)CNC(=O)CCCc2ccc(Cl)cc2)C(=O)*)CCN(CC(=O)O)CC1; X3 = O=C(O)CN1CCN(CC(=O)O)CCN(CC(=O)N[C@@H](CS(=O)(=O)O)C(=O)N[C@@H](CCCCNC(=O)CCCc2ccc(Br)cc2)C(=O)*)CCN(CC(=O)O)CC1; X5 = O=C(O)CN1CCN(CC(=O)O)CCN(CC(=O)N[C@@H](CS(=O)(=O)O)C(=O)N[C@@H](CCCCNC(=O)CCCc2ccc(Cl)cc2)C(=O)*)CCN(CC(=O)O)CC1; 2Nal = N[C@@H](Cc1ccc2ccccc2c1)C(=O)O; Lys(iPr) = CC(C)NCCCC[C@H](N)C(=O)O
Give bare numbers, in %ID/g.

CC(C)NCCCC[C@H](NC(=O)[C@H]1CCC(=O)N[C@@H](CCCCNC(=O)[C@H](CCCCNC(=O)CCCc2ccc(Br)cc2)NC(=O)[C@H](CS(=O)(=O)O)NC(=O)CN2CCN(CC(=O)O)CCN(CC(=O)O)CCN(CC(=O)O)CC2)C(=O)N[C@@H](Cc2ccc(O)cc2)C(=O)N[C@@H](CCCCNC(C)C)C(=O)N[C@H](CCCNC(=N)N)C(=O)N[C@@H](Cc2ccc3ccccc3c2)C(=O)N[C@H](C)C(=O)N1)C(N)=O [[^177Lu]Lu-BL34L20, metal not drawn] (K(X3)Y[Lys(iPr)][dR][2Nal][dA][dE][Lys(iPr)]-NH2; lactam N-7) :: 15.4
CC(C)NCCCC[C@H](NC(=O)[C@H]1CCC(=O)N[C@@H](CCCCNC(=O)[C@H](CCCCNC(=O)CCCc2ccc(Cl)cc2)NC(=O)[C@H](CS(=O)(=O)O)NC(=O)CN2CCN(CC(=O)O)CCN(CC(=O)O)CCN(CC(=O)O)CC2)C(=O)N[C@@H](Cc2ccc(O)cc2)C(=O)N[C@@H](CCCCNC(C)C)C(=O)N[C@H](CCCNC(=N)N)C(=O)N[C@@H](Cc2ccc3ccccc3c2)C(=O)N[C@H](C)C(=O)N1)C(N)=O [[^68Ga]Ga-BL34L16, metal not drawn] (K(X5)Y[Lys(iPr)][dR][2Nal][dA][dE][Lys(iPr)]-NH2; lactam N-7) :: 15.2

Next item in the queue.
Request: Which tissue uptake at 3 h is reported for this compound? CC(C)NCCCC[C@H](NC(=O)[C@H]1CCC(=O)N[C@@H](CCCCNC(=O)[C@H](CCCCNC(=O)[C@H](CS(=O)(=O)O)NC(=O)CN2CCN(CC(=O)O)CCN(CC(=O)O)CCN(CC(=O)O)CC2)NC(=O)CNC(=O)CCCc2ccc(Cl)cc2)C(=O)N[C@@H](Cc2ccc(O)cc2)C(=O)N[C@@H](CCCCNC(C)C)C(=O)N[C@H](CCCNC(=N)N)C(=O)N[C@@H](Cc2ccc3ccccc3c2)C(=O)N[C@H](C)C(=O)N1)C(N)=O [[68Ga]Ga-BL34T1, metal not drawn] (K(X4)Y[Lys(iPr)][dR][2Nal][dA][dE][Lys(iPr)]-NH2; lactam N-7)
Response: 23.7

----------
EXPERIMENT: in vivo
Design: species or system mice
MEASUREMENT_CONDITIONS: male, NOD.Cg-Rag1tm1Mom Il2rgtm1Wjl/SzJ (NRG), mouse, iv, total radioactivity, Ratio Tumor-to-Kidney
Where a SMILES comes first, the peptide text is derived from it. Bridges are numbered along the chain shown (N, C = ends). Side-chain parts run from the residue outwards. [ ]: non-standard residue; d: D form. The star is where a group is joined. X7 = COc1ccc(CCCC(=O)NCCCC[C@H](NC(=O)CN2CCN(CC(=O)O)CCN(CC(=O)O)CCN(CC(=O)O)CC2)C(=O)*)cc1; 2Nal = N[C@@H](Cc1ccc2ccccc2c1)C(=O)O; Lys(iPr) = CC(C)NCCCC[C@H](N)C(=O)O; Cya = N[C@@H](CS(=O)(=O)O)C(=O)O
MEASURED_PROPERTY: tissue to tissue ratio at 1 h
Numbers only.

Request: Which tissue to tissue ratio at 1 h is reported for this molecule? COc1ccc(CCCC(=O)NCCCC[C@H](NC(=O)CN2CCN(CC(=O)O)CCN(CC(=O)O)CCN(CC(=O)O)CC2)C(=O)N[C@@H](CS(=O)(=O)O)C(=O)NCCCC[C@@H]2NC(=O)CC[C@H](C(=O)N[C@@H](CCCCNC(C)C)C(N)=O)NC(=O)[C@@H](C)NC(=O)[C@H](Cc3ccc4ccccc4c3)NC(=O)[C@@H](CCCNC(=N)N)NC(=O)[C@H](CCCCNC(C)C)NC(=O)[C@H](Cc3ccc(O)cc3)NC2=O)cc1 [[68Ga]Ga-BL34L6, metal not drawn] (K([Cya-X7])Y[Lys(iPr)][dR][2Nal][dA][dE][Lys(iPr)]-NH2; lactam N-7)
Response: 4.36

----------
EXPERIMENT: in vivo
Parameters: species or system mice
MEASUREMENT_CONDITIONS: male, NOD.Cg-Rag1tm1Momll2rgtm1Wjl/SzJ (NRG), mouse, iv, total radioactivity, Biodistribution: Testes
Where a SMILES comes first, the peptide text is derived from it. Bridges are numbered along the chain shown (N, C = ends). [ ]: non-standard residue; d: D form. The star is where a group is joined. X3 = O=C(O)CN1CCN(CC(=O)O)CCN(CC(=O)N[C@@H](CS(=O)(=O)O)C(=O)N[C@@H](CCCCNC(=O)CCCc2ccc(Br)cc2)C(=O)*)CCN(CC(=O)O)CC1; X1 = O=C(O)CN1CCN(CC(=O)O)CCN(CC(=O)N[C@@H](CS(=O)(=O)O)C(=O)N[C@@H](CCCCNC(=O)CCCc2ccc(I)cc2)C(=O)*)CCN(CC(=O)O)CC1; 2Nal = N[C@@H](Cc1ccc2ccccc2c1)C(=O)O; Lys(iPr) = CC(C)NCCCC[C@H](N)C(=O)O
For each record, write down the corresponding tissue uptake at 24 h.
Give bare numbers, in %ID/g.

CC(C)NCCCC[C@H](NC(=O)[C@H]1CCC(=O)N[C@@H](CCCCNC(=O)[C@H](CCCCNC(=O)CCCc2ccc(Br)cc2)NC(=O)[C@H](CS(=O)(=O)O)NC(=O)CN2CCN(CC(=O)O)CCN(CC(=O)O)CCN(CC(=O)O)CC2)C(=O)N[C@@H](Cc2ccc(O)cc2)C(=O)N[C@@H](CCCCNC(C)C)C(=O)N[C@H](CCCNC(=N)N)C(=O)N[C@@H](Cc2ccc3ccccc3c2)C(=O)N[C@H](C)C(=O)N1)C(N)=O [[^177Lu]Lu-BL34L20, metal not drawn] (K(X3)Y[Lys(iPr)][dR][2Nal][dA][dE][Lys(iPr)]-NH2; lactam N-7) :: 1.01

Next item in the queue.
Request: Which tissue uptake at 24 h is reported for this molecule? CC(C)NCCCC[C@H](NC(=O)[C@H]1CCC(=O)N[C@@H](CCCCNC(=O)[C@H](CCCCNC(=O)CCCc2ccc(I)cc2)NC(=O)[C@H](CS(=O)(=O)O)NC(=O)CN2CCN(CC(=O)O)CCN(CC(=O)O)CCN(CC(=O)O)CC2)C(=O)N[C@@H](Cc2ccc(O)cc2)C(=O)N[C@@H](CCCCNC(C)C)C(=O)N[C@H](CCCNC(=N)N)C(=O)N[C@@H](Cc2ccc3ccccc3c2)C(=O)N[C@H](C)C(=O)N1)C(N)=O [[^177Lu]Lu-BL34L11, metal not drawn] (K(X1)Y[Lys(iPr)][dR][2Nal][dA][dE][Lys(iPr)]-NH2; lactam N-7)
Response: 2.64

----------
For each record, write down the corresponding tissue uptake at 72 h.
EXPERIMENT: in vivo
Design: species or system mice
MEASUREMENT_CONDITIONS: male, NOD.Cg-Rag1tm1Mom Il2rgtm1Wjl/SzJ (NRG), mouse, iv, total radioactivity, Biodistribution: Heart
Where a SMILES comes first, the peptide text is derived from it. Bridges are numbered along the chain shown (N, C = ends). [ ]: non-standard residue; d: D form. The star is where a group is joined. X3 = O=C(O)CN1CCN(CC(=O)O)CCN(CC(=O)N[C@@H](CS(=O)(=O)O)C(=O)N[C@@H](CCCCNC(=O)CCCc2ccc(Br)cc2)C(=O)*)CCN(CC(=O)O)CC1; X1 = O=C(O)CN1CCN(CC(=O)O)CCN(CC(=O)N[C@@H](CS(=O)(=O)O)C(=O)N[C@@H](CCCCNC(=O)CCCc2ccc(I)cc2)C(=O)*)CCN(CC(=O)O)CC1; 2Nal = N[C@@H](Cc1ccc2ccccc2c1)C(=O)O; Lys(iPr) = CC(C)NCCCC[C@H](N)C(=O)O
Answers are plain numbers, in %ID/g.

CC(C)NCCCC[C@H](NC(=O)[C@H]1CCC(=O)N[C@@H](CCCCNC(=O)[C@H](CCCCNC(=O)CCCc2ccc(I)cc2)NC(=O)[C@H](CS(=O)(=O)O)NC(=O)CN2CCN(CC(=O)O)CCN(CC(=O)O)CCN(CC(=O)O)CC2)C(=O)N[C@@H](Cc2ccc(O)cc2)C(=O)N[C@@H](CCCCNC(C)C)C(=O)N[C@H](CCCNC(=N)N)C(=O)N[C@@H](Cc2ccc3ccccc3c2)C(=O)N[C@H](C)C(=O)N1)C(N)=O [[^177Lu]Lu-BL34L11, metal not drawn] (K(X1)Y[Lys(iPr)][dR][2Nal][dA][dE][Lys(iPr)]-NH2; lactam N-7) :: 1.1

Next item in the queue.
Request: Which tissue uptake at 72 h is reported for this compound? CC(C)NCCCC[C@H](NC(=O)[C@H]1CCC(=O)N[C@@H](CCCCNC(=O)[C@H](CCCCNC(=O)CCCc2ccc(Br)cc2)NC(=O)[C@H](CS(=O)(=O)O)NC(=O)CN2CCN(CC(=O)O)CCN(CC(=O)O)CCN(CC(=O)O)CC2)C(=O)N[C@@H](Cc2ccc(O)cc2)C(=O)N[C@@H](CCCCNC(C)C)C(=O)N[C@H](CCCNC(=N)N)C(=O)N[C@@H](Cc2ccc3ccccc3c2)C(=O)N[C@H](C)C(=O)N1)C(N)=O [[^177Lu]Lu-BL34L20, metal not drawn] (K(X3)Y[Lys(iPr)][dR][2Nal][dA][dE][Lys(iPr)]-NH2; lactam N-7)
Response: 0.25
